Just for reference, PubChem BioAssay (NCI) is where these values come from.

- Test system: UACC-62 melanoma
- testProtocol: NCI-60 one-dose screen, 48 h (100 = growth as untreated, 0 = no growth, -100 = all killed)
- conditionDescription: 10 µM
The panel holds about 83,000 compounds, 20% with a hit somewhere; the sample as a whole holds those more often.
Readings of growth for the listed molecules
Please give a number only; it is taken to be in %.

O=C(CNc1nc(-c2ccccc2)cs1)Nc1ccc(Cl)cc1 | -92.4
N#Cc1c(NC(=O)c2ccc(C(F)(F)F)cc2)sc2c1CCC(=O)C2 | -82.7
CN1C/C(=C\c2ccc(O)cc2O)c2[o+]c3cc(O)ccc3cc2C1 | 47.5
C=C1CCC2C3(C)COC(c4cccc(F)c4)OC3CCC2(C)C1CC(O)C1=CCOC1=O (centres undefined) | 64.6
COc1ccc(N(C)c2cc(C#N)nc3ccccc23)cc1/C=C/C(=O)NO | -72.2

[in] Query growth for "COc1ccc2nc(Cl)c(-c3cc(-c4ccccc4)nc(=O)[nH]3)cc2c1"
[out] 66.8

[in] Query growth for "O=C(CS(=O)(=O)c1oc(-c2ccc(Cl)cc2)nc1S(=O)(=O)c1ccc(Cl)cc1)N1CCOCC1"
[out] 56.7

[in] Query growth for "O=c1[nH]c2ccccc2cc1CSc1ccc(Nc2nccc(-c3ccc4ccccc4c3)n2)cc1"
[out] 95.7

[in] Query growth for "O=c1[nH]n(C(=S)N/N=C/c2ccc(F)cc2)c(=O)c2ccccc12"
[out] 44.7

[in] Query growth for Cc1ccc(CNC(=O)Cc2ccc3c(c2)CN(C2CCC(=O)NC2=O)C3=O)cc1 (centres undefined)
[out] 40.6

---

- Tested on: A498 renal
- testProtocol: NCI-60 one-dose screen, 48 h
- conditionDescription: 10 µM
The panel holds about 83,000 compounds, 20% with a hit somewhere; the sample as a whole holds those more often. Calls of active or inactive are those of the source. Rule for the calls: active = growth percent below 10; inactive = the rest.
Use one of these outcomes when replying: t = active, f = inactive

C=CC(=O)Nc1nc(-c2cccc(NS(=O)(=O)c3cccc4c(N(C)C)cccc34)c2)cs1 | f
CN1C(=O)N(C)C2SC(N/N=C/c3ccccc3)=NC21 (centres undefined) | f
COc1ccc2[nH]c(O)c(N=NC(=O)c3cc(-c4ccc(C)cc4)nc4ccccc34)c2c1 | f

[in] For this molecule, state the assay outcome: "O=C(CSc1nnc(-c2c[nH]c3ccccc23)n1-c1ccccc1)Nc1ccc(C(=O)/C=C/c2ccc(Br)cc2)cc1"
[out] f

[in] For this molecule, state the assay outcome: "CC(=O)c1cc(C(=O)c2ccc3c(c2)NC(=O)CO3)n2ccc3ccccc3c12"
[out] f

[in] For this molecule, state the assay outcome: "O=C(Cn1cc(CSc2nnc3oc4ccccc4n23)nn1)Nc1cccc(Cl)c1"
[out] f

[in] For this molecule, state the assay outcome: "O=C(Nc1ccc(OCc2ccccc2)cc1)Nc1ccc(Cl)c(C(F)(F)F)c1"
[out] t

[in] For this molecule, state the assay outcome: "Brc1ccc(/C=C/c2n(Cc3ccc4ccccc4c3)c3ccccc3[n+]2Cc2ccc3ccccc3c2)cc1"
[out] f

[in] For this molecule, state the assay outcome: O=C(c1ccc(Cl)cc1)C1[C@H](c2ccccc2Br)[C@@H](c2ccccc2)NC12C(=O)Nc1ccccc12 (some centres undefined)
[out] f

---

- System: MOLT-4 leukemia
- testProtocol: NCI-60 one-dose screen, 48 h (100 = growth as untreated, 0 = no growth, -100 = all killed)
- conditionDescription: 10 µM
About 83,000 compounds went through this panel and 20% of them were active in at least one assay; those are over-represented in the sample as a whole.
Parameter threshold = 20%. Response is y when growth meets or exceeds it, else n.

Completed entries (count: 4):
CC1(c2ccccc2)NC(=O)N(CC(=O)Nc2ccc(C(=O)/C=C/c3ccccc3)cc2)C1=O (stereo not given) | y
COc1cccc(COc2ccc(/C=C3\Oc4cc(O)ccc4C3=O)cc2)c1 | y
Cc1nc2c(cnn2-c2ccccc2)c(=O)n1-c1ccc(NC(=O)c2ccc(F)cc2)cc1 | n
COc1nccnc1NS(=O)(=O)c1ccc(NC2=C(Cl)C(=O)c3nc(C)ccc3C2=O)cc1 | y

# next molecule below
[in] Determine whether this molecule has growth no lower than 20%: "CN1CCN(Cc2ccc(C(=O)Nc3cccc(Nc4ccc5cc(O)ccc5n4)c3)cc2C(F)(F)F)CC1"
[out] n

---

- Test system: SK-MEL-2 melanoma
- testProtocol: NCI-60 one-dose screen, 48 h (100 = growth as untreated, 0 = no growth, -100 = all killed)
- conditionDescription: 10 µM
About 83,000 compounds went through this panel and 20% of them were active in at least one assay; those are over-represented in the sample as a whole.
Returns: string. Value is TRUE if measured growth is below -20%, and FALSE if it is greater than or equal to it.

[in] Could you please tell me whether growth recorded for O=C(c1ccc(O)cc1)C1[C@H](c2ccccc2Br)[C@@H](c2ccccc2)NC12C(=O)Nc1ccc(Cl)cc12 (stereo partly drawn) is less than -20%?
[out] TRUE

[in] Could you please tell me whether growth recorded for "O=C1Nc2ccc(Cl)cc2/C1=C/c1ccc(OCc2ccc(Br)cc2F)cc1" is less than -20%?
[out] FALSE

[in] Could you please tell me whether growth recorded for "CNC(=O)c1cccc(N2CCc3c2ccc(NC(=O)Nc2ccc(N4CCN(C)CC4)c(C(F)(F)F)c2)c3F)c1" is less than -20%?
[out] TRUE

[in] Could you please tell me whether growth recorded for "N#Cc1ccc(-c2nn(-c3ccc(C(=O)O)cc3)cc2CNc2ccc(Cl)cc2)cc1" is less than -20%?
[out] FALSE

[in] Could you please tell me whether growth recorded for "Cc1ccc(NC(=O)c2ccc(-n3c(=O)[nH]c4ccccc4c3=O)cc2)cc1" is less than -20%?
[out] FALSE

[in] Could you please tell me whether growth recorded for "COc1ccc(C(=O)Nc2sc3c(c2C#N)CCC(=O)C3)cc1C(F)(F)F" is less than -20%?
[out] FALSE

[in] Could you please tell me whether growth recorded for CC[C@]12C=CCN3CC[C@@]4(c5cc(C#CCNc6ccc(C)c(Nc7nccc(-c8cccnc8)n7)c6)c(OC)cc5N(C)[C@H]4[C@@](O)(C(=O)OC)[C@@H]1OC(C)=O)C32 (stereo partly drawn) is less than -20%?
[out] FALSE

[in] Could you please tell me whether growth recorded for "O=C(/C=C/Nc1ccc(F)cc1F)c1ccc2c(c1)Nc1ccccc1S2" is less than -20%?
[out] FALSE

---

- Test system: NCI-H522 lung
- testProtocol: NCI-60 one-dose screen, 48 h
- conditionDescription: 10 µM
Compounds without any hit were thinned out: in the full panel of roughly 83,000, 20% have a hit. Activity calls are given as the source filed them. How the source made its calls: active means growth percent below 10; inactive means the rest.
Use one of these outcomes when replying: yes (active), no (inactive)

Completed entries (count: 3):
CN(C(=O)c1ccc(C(C)(C)C)cc1)c1sc2c(c1C#N)CCC(=O)C2 | yes
O=C(c1ccc(Cl)cc1)C1[C@H](c2ccc(Br)cc2)[C@@H](c2ccccc2)NC12C(=O)Nc1ccc(Br)cc12 (some centres undefined) | yes
O=C(CSc1nnc(-c2c[nH]c3ccccc23)n1-c1ccccc1)Nc1ccc(C(=O)/C=C/c2ccccc2Cl)cc1 | no

[in] For this compound, state the assay outcome: "Cc1ccc(-c2nc3ccc(C(=O)N=Nc4c(O)[nH]c5ccc([N+](=O)[O-])cc45)cc3[nH]2)cc1"
[out] no

---

Readings of growth for the listed molecules
- System: HCT-15 colon
- testProtocol: NCI-60 one-dose screen, 48 h (100 = growth as untreated, 0 = no growth, -100 = all killed)
- conditionDescription: 10 µM
About 83,000 compounds went through this panel and 20% of them were active in at least one assay; those are over-represented in the sample as a whole.
Please give a number only; it is taken to be in %.

Solved cases below.
Cc1ccc(C(=O)NCCCNc2nc(Nc3ccc(N4CCN(C)CC4)cc3)nc3ccsc23)cc1 | 2.1
CC(=O)c1cc(C(=O)c2ccc3c(c2)NC(=O)CO3)n2ccc3ccccc3c12 | 71.1

[in] Query growth for "CCCCOc1ccc(Nc2nc3ccccc3nc2Nc2ccc(OCCCC)cc2)cc1"
[out] 64.4

[in] Query growth for "Nc1cccnc1/C=N/NC(=S)NCCNC(=O)c1ccc(-n2nc(-c3ccccc3O)nc2-c2ccccc2O)cc1"
[out] 17.9

[in] Query growth for "COc1ccc2[nH]cc(/C=N/Nc3ccc(Br)cn3)c2c1"
[out] 6.98

[in] Query growth for "Cc1noc2c(Cc3ccccc3)nn(CC(=O)N/N=C/c3ccc(Cl)cc3)c(=O)c12"
[out] 86.3

---

- System: SR leukemia
- testProtocol: NCI-60 one-dose screen, 48 h
- conditionDescription: 10 µM
The panel holds about 83,000 compounds, 20% with a hit somewhere; the sample as a whole holds those more often. Active and inactive are the calls of the source. The calls were made as follows: active = growth percent below 10; inactive = the rest.
Use one of these outcomes when replying: 1 = active, 0 = inactive

Completed entries (count: 3):
COc1cccc(/C=N/NC(=O)c2ccc3nc(-c4ccc(Cl)cc4)[nH]c3c2)c1O | 1
CCCCSc1nc(Nc2ccc(/C(C)=N/NC(N)=S)cc2)c(C#N)c(-c2ccc(OC)cc2)n1 | 0
[2H]C([2H])([2H])Oc1ccc2ncc(C#Cc3cncc(C(=O)Nc4ccc(CN5CCN(C)CC5)c(C(F)(F)F)c4)c3)n2n1 | 1

[in] For this molecule, state the assay outcome: "Cc1ccn2c(C(=O)c3ccc(Br)cc3)cc(-c3cc(-c4ccc(N(C)C)cc4)c(C#N)c(N)n3)c2c1"
[out] 0

[in] For this molecule, state the assay outcome: "Cc1noc2c(Cc3ccccc3)nn(CC(=O)N/N=C/c3ccc(Br)cc3)c(=O)c12"
[out] 0

[in] For this molecule, state the assay outcome: "COc1cccc(/C=C2\N=C(C)N(CCc3ccc(S(N)(=O)=O)cc3)C2=O)c1"
[out] 0

[in] For this molecule, state the assay outcome: "COc1ccc(C(=O)Nc2sc3c(c2C#N)CCC(=O)C3)cc1C(F)(F)F"
[out] 1

[in] For this molecule, state the assay outcome: "O=C(CSc1nnc(-c2c[nH]c3ccccc23)n1-c1ccccc1)Nc1ccc(C(=O)/C=C/c2ccc(Cl)cc2)cc1"
[out] 0
